# target-of-assay: bacteriophage T4 DNA polymerase (Enterobacteria phage T4, UniProt P04415)
# Construct: made in house
# Sequence (P04415 whole entry): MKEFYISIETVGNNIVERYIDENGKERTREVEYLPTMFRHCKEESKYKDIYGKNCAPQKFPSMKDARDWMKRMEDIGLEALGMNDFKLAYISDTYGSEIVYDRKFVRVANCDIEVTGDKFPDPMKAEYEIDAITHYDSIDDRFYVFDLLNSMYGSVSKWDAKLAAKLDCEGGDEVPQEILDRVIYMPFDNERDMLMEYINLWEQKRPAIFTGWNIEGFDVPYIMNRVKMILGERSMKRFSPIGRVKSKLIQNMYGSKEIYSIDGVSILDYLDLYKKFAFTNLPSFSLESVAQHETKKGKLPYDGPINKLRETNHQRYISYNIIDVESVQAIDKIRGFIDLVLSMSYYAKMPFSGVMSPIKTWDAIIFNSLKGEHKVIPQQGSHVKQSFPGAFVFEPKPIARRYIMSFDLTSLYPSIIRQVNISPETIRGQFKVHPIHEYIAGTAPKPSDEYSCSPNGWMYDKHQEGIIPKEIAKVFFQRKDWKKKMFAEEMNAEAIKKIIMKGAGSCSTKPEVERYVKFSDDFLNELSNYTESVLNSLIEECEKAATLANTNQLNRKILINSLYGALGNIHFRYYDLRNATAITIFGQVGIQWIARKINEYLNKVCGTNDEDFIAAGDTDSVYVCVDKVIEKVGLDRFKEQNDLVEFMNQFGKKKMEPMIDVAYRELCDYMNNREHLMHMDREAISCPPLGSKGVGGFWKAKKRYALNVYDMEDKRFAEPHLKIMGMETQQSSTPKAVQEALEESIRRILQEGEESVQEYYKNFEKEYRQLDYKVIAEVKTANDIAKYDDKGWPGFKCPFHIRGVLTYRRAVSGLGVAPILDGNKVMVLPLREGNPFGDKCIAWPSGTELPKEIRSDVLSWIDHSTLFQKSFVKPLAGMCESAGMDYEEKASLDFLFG
# protocol-description: Counter-screen against bacteriophage T4 DNA polymerase
# Assay type: biochemical
# particulars: DRC-2; 10'; concentration 40
Catalogue of % inhibition T4 10' values
assay-endpoint: % inhibition T4 10'

molecule: Cc1cccc2c(C(=O)NC(C)C)cc(N(C)C)nc12 [Molecule 47, CC(NC(=O)c1cc(nc2c1cccc2C)N(C)C)C]
assay-endpoint: % inhibition T4 10'
test-value: 30%

molecule: CC(C)(C)OC(=O)COc1ccc2cc(-c3ccccc3)c(=O)oc2c1 [Molecule 81]
assay-endpoint: % inhibition T4 10'
test-value: 7%

molecule: CC1(C)CC(=O)C2=C(C1)OC1=C(C(=O)CC(C)(C)C1)C2c1ccc(O)cc1 [KU0194226]
assay-endpoint: % inhibition T4 10'
test-value: 18%

molecule: COc1cccc(C(=O)N2CCc3c(nc4cc(-c5ccccc5)[nH]n4c3=O)C2)c1OC [Molecule 22]
assay-endpoint: % inhibition T4 10'
test-value: -28%

molecule: O=C(Cc1cc(=O)[nH]c(SCc2ccccc2)n1)Nc1ccc2c(c1)OCO2 [Molecule 46]
assay-endpoint: % inhibition T4 10'
test-value: 9%

molecule: Cc1ccc(C)n1-c1ccc(C(=O)NNC(=O)c2ccc3nccnc3c2)cc1 [Molecule 53]
assay-endpoint: % inhibition T4 10'
test-value: 29%

molecule: COc1ccc(-c2cc3nc4c(c(=O)n3[nH]2)CCN(C(=O)CCc2ccccc2)C4)cc1 [Molecule 17]
assay-endpoint: % inhibition T4 10'
test-value: -44%

molecule: Cc1ccccc1C(=O)N1CCc2c(nc3cc(-c4ccccc4)[nH]n3c2=O)C1 [Molecule 41]
assay-endpoint: % inhibition T4 10'
test-value: -26%
